composite z-score values, listed per item
# Tested System: Torsin-1A-interacting protein 1 (Homo sapiens) (UniProt Q5JTV8)
# Sequence (Q5JTV8 whole entry, looked up): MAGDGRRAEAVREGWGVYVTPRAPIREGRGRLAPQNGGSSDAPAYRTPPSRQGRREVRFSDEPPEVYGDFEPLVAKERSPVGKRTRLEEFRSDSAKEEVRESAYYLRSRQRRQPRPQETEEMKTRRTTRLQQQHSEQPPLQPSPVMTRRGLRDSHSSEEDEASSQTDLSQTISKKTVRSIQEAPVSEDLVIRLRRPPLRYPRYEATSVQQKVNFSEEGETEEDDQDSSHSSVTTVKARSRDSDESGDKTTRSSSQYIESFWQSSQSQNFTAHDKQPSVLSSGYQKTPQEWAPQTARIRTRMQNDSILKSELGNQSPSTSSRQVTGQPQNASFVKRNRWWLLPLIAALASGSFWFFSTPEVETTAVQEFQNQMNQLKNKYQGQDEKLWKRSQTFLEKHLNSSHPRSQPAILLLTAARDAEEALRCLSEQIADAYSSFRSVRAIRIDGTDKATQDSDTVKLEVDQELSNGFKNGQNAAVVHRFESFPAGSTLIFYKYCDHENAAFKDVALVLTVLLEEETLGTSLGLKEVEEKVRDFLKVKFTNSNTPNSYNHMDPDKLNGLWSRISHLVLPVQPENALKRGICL
# Procedure Text: compound microarray binding of lysate hLAP1 – cell lysate, small-molecule microarray, COS7 lysate, 635/667 nm fluorescence, primary screen (AID 1116)
# Study Conditions: 635 nm fluorescence, higher = more signal

{"Compound": "COc1cc(OC)c(C(O)C2C=CC3C(=O)N(Cc4ccccc4)C(=O)C3N2n2cnnc2)cc1Br (stereo not given)", "composite z-score": 0.781}
{"Compound": "COc1ccc([Si](C)(C)[C@@H]2[C@@H](CCO)O[C@]3(C(=O)N(Cc4ccccc4)c4ccc(NC(=O)[C@H](C)O)cc43)[C@H]2C)cc1", "composite z-score": 1.5}
{"Compound": "Cc1ccc(NN2C(C(O)c3c(F)cccc3Cl)C=CC3C(=O)N(C4CCCCC4)C(=O)C32)cc1 (stereo not given)", "composite z-score": 0.983}
{"Compound": "C=CC[C@H](OC(=O)Nc1ccc(SC)cc1)c1ccc(O)c2ccccc12", "composite z-score": 0.986}
{"Compound": "COc1ccc(C#Cc2ccc3c(c2)[C@]2(C(=O)N3)[C@H](c3ccc(O)cc3)N3[C@H](c4ccccc4)[C@H](c4ccccc4)OC(=O)[C@H]3[C@@H]2C(=O)Nc2nc3ccccc3s2)cc1", "composite z-score": 1.22}
{"Compound": "COc1ccc(C#Cc2ccc3c(c2)[C@]2(C(=O)N3)[C@H](C(=O)O)[C@H]3C(=O)O[C@H](c4ccccc4)[C@H](c4ccccc4)N3[C@@H]2c2ccc(O)cc2)cc1", "composite z-score": 0.286}
{"Compound": "CCCCCN1CC=CC23O[C@@H]4C=CCCOC(=O)C4[C@H]2C(=O)N(CCCCCCO)[C@@H]3C1=O (stereo not given in full)", "composite z-score": 0.564}
{"Compound": "CCCCCN1CC=CC23O[C@@H]4/C=C\\CCC(C)OC(=O)C4[C@H]2C(=O)N(C(CO)C(C)C)[C@@H]3C1=O (stereo not given in full)", "composite z-score": 0.163}
{"Compound": "O=C1OCCC=C[C@H]2OC34C=CCN(Cn5nnc6ccccc65)C(=O)[C@H]3N(CCCO)C(=O)[C@@H]4C12 (stereo not given in full)", "composite z-score": 0.879}
{"Compound": "O=C1O[C@H](c2ccccc2)[C@H](c2ccccc2)N2[C@H]1[C@@H](C(=O)O)[C@]1(C(=O)Nc3ccc(C#CCCO)cc31)[C@H]2c1ccccc1OCCO", "composite z-score": 0.182}

====

# Tested System: Carbonic anhydrase 2 (Homo sapiens) (UniProt P00918)
# Procedure Text: compounds binding carbonic anhydrase 2 – biochemical, small-molecule microarray, Alexa647-labelled CAII, profiling panel (AID 1122)
# Study Conditions: CAII-A647 binding fluorescence, higher = more signal
Where composite z-score equals or exceeds 0.4, the correct label is criterion met; where it does not, the label is criterion not met.

{"Molecule": "CC[C@@H]1C=C(C(=O)O)[C@H](c2ccc(C#N)cc2)N1S(=O)(=O)c1ccc(C)cc1", "Tested System": "Carbonic anhydrase 2 (Homo sapiens) (UniProt P00918)", "Category": "criterion met"}
{"Molecule": "COc1cc2c(cc1O)C(c1cccs1)N(Cc1cc3c(cc1Br)OCO3)CC2 (stereo unspecified)", "Tested System": "Carbonic anhydrase 2 (Homo sapiens) (UniProt P00918)", "Category": "criterion met"}
{"Molecule": "COCCOC(=O)N1C(=O)[C@@]2(c3cc(C#CC4(O)CCCCCC4)ccc31)[C@H](C(=O)Nc1nc3ccccc3s1)[C@H]1C(=O)O[C@H](c3ccccc3)[C@H](c3ccccc3)N1[C@@H]2c1ccc(O)cc1", "Tested System": "Carbonic anhydrase 2 (Homo sapiens) (UniProt P00918)", "Category": "criterion not met"}
{"Molecule": "COC(=O)c1c(CC[C@@H](CO)NC(=O)N[C@@H](C)Cn2cc(-c3ccccn3)nn2)oc(C(C)=O)c1C(=O)OC", "Tested System": "Carbonic anhydrase 2 (Homo sapiens) (UniProt P00918)", "Category": "criterion met"}
{"Molecule": "[N-]=[N+]=Nc1ccccc1C[C@@]1(C(=O)NCCN2CCOCC2)N=C(c2ccc(OCCCO)cc2)O[C@@H]1c1ccccc1N=[N+]=[N-]", "Tested System": "Carbonic anhydrase 2 (Homo sapiens) (UniProt P00918)", "Category": "criterion met"}
{"Molecule": "C#CCN([C@@H](Cc1ccccc1)C(=O)OC)[C@@H](/C=C/C1CC1)[C@H](O)Cc1ccccc1", "Tested System": "Carbonic anhydrase 2 (Homo sapiens) (UniProt P00918)", "Category": "criterion not met"}
{"Molecule": "O=C(O)[C@@H]1[C@@H]2C(=O)N(c3ccccc3)C(=O)[C@@H]2C[C@@H]1Sc1ccccc1", "Tested System": "Carbonic anhydrase 2 (Homo sapiens) (UniProt P00918)", "Category": "criterion met"}
{"Molecule": "CCOC(=O)C1=C[C@@H](C(C)C)N(S(=O)(=O)c2ccc(C)cc2)[C@H]1c1ccc(C(F)(F)F)cc1", "Tested System": "Carbonic anhydrase 2 (Homo sapiens) (UniProt P00918)", "Category": "criterion not met"}
{"Molecule": "C=CC[C@H](OC(=O)Nc1ccc(SC)cc1)c1ccc(O)c2ccccc12", "Tested System": "Carbonic anhydrase 2 (Homo sapiens) (UniProt P00918)", "Category": "criterion met"}
{"Molecule": "CC(C)(C)OC(=O)CC[C@@]1(C(=O)NCC(O)CO)N=C(c2ccc(OCCCO)cc2)O[C@@H]1c1ccccc1CN=[N+]=[N-] (stereo partly specified)", "Tested System": "Carbonic anhydrase 2 (Homo sapiens) (UniProt P00918)", "Category": "criterion met"}
{"Molecule": "COc1ccc(CCNC(=O)[C@@]2(c3ccc([N+](=O)[O-])cc3)CC(=O)N(C3CCCCC3)[C@@H]2c2ccc(CO)cc2)cc1", "Tested System": "Carbonic anhydrase 2 (Homo sapiens) (UniProt P00918)", "Category": "criterion not met"}
{"Molecule": "COc1cc(NN2C(C(O)c3ccco3)C=CC3C(=O)N(C)C(=O)C32)cc(OC)c1OC (stereo unspecified)", "Tested System": "Carbonic anhydrase 2 (Homo sapiens) (UniProt P00918)", "Category": "criterion met"}
{"Molecule": "O=C1N(CCS(=O)(=O)c2ccccc2)c2ccccc2[C@H]2OC(c3ccc(OCCCO)cc3)=N[C@@]12Cc1ccccc1", "Tested System": "Carbonic anhydrase 2 (Homo sapiens) (UniProt P00918)", "Category": "criterion met"}
{"Molecule": "COc1ccc([Si](C)(C)[C@H]2[C@H](CC(=O)N3CCC[C@H]3CO)O[C@@]3(C(=O)N(Cc4ccc(N5CCOC5=O)cc4)c4ccccc43)[C@@H]2C)cc1", "Tested System": "Carbonic anhydrase 2 (Homo sapiens) (UniProt P00918)", "Category": "criterion not met"}
{"Molecule": "CCCCCCc1nc(Cc2cc(OC)c(OC)c(OC)c2)cc2c1[Si](C(C)C)(C(C)C)OC2", "Tested System": "Carbonic anhydrase 2 (Homo sapiens) (UniProt P00918)", "Category": "criterion not met"}
{"Molecule": "CCCCC(CC)C(O)C1C=CC2C(=O)N(c3ccccc3)C(=O)C2N1Nc1ccccc1F (stereo unspecified)", "Tested System": "Carbonic anhydrase 2 (Homo sapiens) (UniProt P00918)", "Category": "criterion met"}
{"Molecule": "CCOC(=O)C[C@H]1[C@H](OC(=O)Cc2ccc3c(c2)OCO3)[C@@H](NC(=O)C2CCCCC2)c2cc(OCCCO)ccc2N1C(=O)c1ccccc1", "Tested System": "Carbonic anhydrase 2 (Homo sapiens) (UniProt P00918)", "Category": "criterion not met"}
{"Molecule": "C=C[C@@H](OC)[C@H](OC(=O)Nc1ccc(OC)cc1)c1ccc(O)c(F)c1", "Tested System": "Carbonic anhydrase 2 (Homo sapiens) (UniProt P00918)", "Category": "criterion not met"}
{"Molecule": "COC(=O)[C@@H]1N=C(c2ccc(OCCCO)cc2)O[C@@H]1c1ccccc1", "Tested System": "Carbonic anhydrase 2 (Homo sapiens) (UniProt P00918)", "Category": "criterion met"}
{"Molecule": "COc1cc2c(cc1O)C=[N+](Cc1sc3ccccc3c1Cl)CC2", "Tested System": "Carbonic anhydrase 2 (Homo sapiens) (UniProt P00918)", "Category": "criterion met"}
{"Molecule": "COC(=O)[C@@]1(Cc2ccc(F)cc2)[C@H]2c3cc(C(=O)N(C)C)n(Cc4ccc(OC(F)(F)F)cc4)c3C[C@H]2CN1C(=O)c1ccccc1", "Tested System": "Carbonic anhydrase 2 (Homo sapiens) (UniProt P00918)", "Category": "criterion not met"}
{"Molecule": "CC(C)C(O)C1C=CC2C(=O)N(c3ccccc3)C(=O)C2N1Nc1ccccc1 (stereo unspecified)", "Tested System": "Carbonic anhydrase 2 (Homo sapiens) (UniProt P00918)", "Category": "criterion met"}
{"Molecule": "C=CC[C@@]1(C(=O)NCCCOC)N=C(c2ccc(OCCCO)cc2)O[C@@H]1c1ccccc1", "Tested System": "Carbonic anhydrase 2 (Homo sapiens) (UniProt P00918)", "Category": "criterion met"}
{"Molecule": "COCC(=C=CC[C@H](O)c1ccccc1OCCO)C[C@H](O)c1ccccn1", "Tested System": "Carbonic anhydrase 2 (Homo sapiens) (UniProt P00918)", "Category": "criterion met"}
{"Molecule": "CC(C)C(CO)N1C(=O)[C@@H]2C3C(=O)OCCC/C=C\\[C@H]3OC23C=CCN(c2ccc4ccccc4c2)C(=O)[C@@H]13 (stereo partly specified)", "Tested System": "Carbonic anhydrase 2 (Homo sapiens) (UniProt P00918)", "Category": "criterion met"}
{"Molecule": "CC1CC/C=C\\[C@H]2OC34C=CCN(Cc5ccccc5)C(=O)[C@H]3N(C(CO)C(C)C)C(=O)[C@@H]4C2C(=O)O1 (stereo partly specified)", "Tested System": "Carbonic anhydrase 2 (Homo sapiens) (UniProt P00918)", "Category": "criterion met"}
